- Study Target: Polyketide synthase Pks13 (Mycobacterium tuberculosis (strain ATCC 25618 / H37Rv))
- Measurement Notes: Mycobacterium tuberculosis Polyketide synthase 13 Thioesterase (PKS13)
- Type: functional
- Set-up: scale not given: in the data most compounds retested in dose-response had high values
- Measurement Conditions: 30 µM
Among all 67,000 compounds or so, about 300 (0.45%) showed an effect of 50% or more. This is one part of a sample in which strong results are shown more often than they occur.
Field: label. Allowed values: Fulfilled (Percent Effect < 20%) or Not fulfilled (Percent Effect >= 20%).

For orientation, consider the following solved cases.
| Molecule | Study Target | Class Assignment |
| --- | --- | --- |
| CCN(CC)C(=O)c1cc(C2CCCN2C)ccn1 (stereo unspecified) | Polyketide synthase Pks13 (Mycobacterium tuberculosis (strain ATCC 25618 / H37Rv)) | Not fulfilled |
| Cc1ccc(Cl)cc1NC(=O)C1CC(=O)N(Cc2ccccn2)C1 (stereo unspecified) | Polyketide synthase Pks13 (Mycobacterium tuberculosis (strain ATCC 25618 / H37Rv)) | Fulfilled |

Request: Below 20% on Percent Effect? Entry "CCn1ncc(-c2cc(C(F)F)n3nc(CCC(=O)O)nc3n2)c1C"
Response: Fulfilled

Request: Below 20% on Percent Effect? Entry CNc1cncc(C2CCCN2C(=O)Cn2c(=O)oc3ccccc32)n1 (stereo unspecified)
Response: Not fulfilled

Request: Below 20% on Percent Effect? Entry O=C(Nc1ccccn1)C1CC(=O)N(Cc2ccccn2)C1 (stereo unspecified)
Response: Fulfilled

Request: Below 20% on Percent Effect? Entry "O=C(Nc1cccnc1)[C@H]1CN(C2CCCC2)C[C@H]2OCC[C@@H]12"
Response: Fulfilled

###

- Study Target: Polyketide synthase Pks13 (Mycobacterium tuberculosis (strain ATCC 25618 / H37Rv)) (UniProt I6X8D2)
- Sequence (I6X8D2 whole entry): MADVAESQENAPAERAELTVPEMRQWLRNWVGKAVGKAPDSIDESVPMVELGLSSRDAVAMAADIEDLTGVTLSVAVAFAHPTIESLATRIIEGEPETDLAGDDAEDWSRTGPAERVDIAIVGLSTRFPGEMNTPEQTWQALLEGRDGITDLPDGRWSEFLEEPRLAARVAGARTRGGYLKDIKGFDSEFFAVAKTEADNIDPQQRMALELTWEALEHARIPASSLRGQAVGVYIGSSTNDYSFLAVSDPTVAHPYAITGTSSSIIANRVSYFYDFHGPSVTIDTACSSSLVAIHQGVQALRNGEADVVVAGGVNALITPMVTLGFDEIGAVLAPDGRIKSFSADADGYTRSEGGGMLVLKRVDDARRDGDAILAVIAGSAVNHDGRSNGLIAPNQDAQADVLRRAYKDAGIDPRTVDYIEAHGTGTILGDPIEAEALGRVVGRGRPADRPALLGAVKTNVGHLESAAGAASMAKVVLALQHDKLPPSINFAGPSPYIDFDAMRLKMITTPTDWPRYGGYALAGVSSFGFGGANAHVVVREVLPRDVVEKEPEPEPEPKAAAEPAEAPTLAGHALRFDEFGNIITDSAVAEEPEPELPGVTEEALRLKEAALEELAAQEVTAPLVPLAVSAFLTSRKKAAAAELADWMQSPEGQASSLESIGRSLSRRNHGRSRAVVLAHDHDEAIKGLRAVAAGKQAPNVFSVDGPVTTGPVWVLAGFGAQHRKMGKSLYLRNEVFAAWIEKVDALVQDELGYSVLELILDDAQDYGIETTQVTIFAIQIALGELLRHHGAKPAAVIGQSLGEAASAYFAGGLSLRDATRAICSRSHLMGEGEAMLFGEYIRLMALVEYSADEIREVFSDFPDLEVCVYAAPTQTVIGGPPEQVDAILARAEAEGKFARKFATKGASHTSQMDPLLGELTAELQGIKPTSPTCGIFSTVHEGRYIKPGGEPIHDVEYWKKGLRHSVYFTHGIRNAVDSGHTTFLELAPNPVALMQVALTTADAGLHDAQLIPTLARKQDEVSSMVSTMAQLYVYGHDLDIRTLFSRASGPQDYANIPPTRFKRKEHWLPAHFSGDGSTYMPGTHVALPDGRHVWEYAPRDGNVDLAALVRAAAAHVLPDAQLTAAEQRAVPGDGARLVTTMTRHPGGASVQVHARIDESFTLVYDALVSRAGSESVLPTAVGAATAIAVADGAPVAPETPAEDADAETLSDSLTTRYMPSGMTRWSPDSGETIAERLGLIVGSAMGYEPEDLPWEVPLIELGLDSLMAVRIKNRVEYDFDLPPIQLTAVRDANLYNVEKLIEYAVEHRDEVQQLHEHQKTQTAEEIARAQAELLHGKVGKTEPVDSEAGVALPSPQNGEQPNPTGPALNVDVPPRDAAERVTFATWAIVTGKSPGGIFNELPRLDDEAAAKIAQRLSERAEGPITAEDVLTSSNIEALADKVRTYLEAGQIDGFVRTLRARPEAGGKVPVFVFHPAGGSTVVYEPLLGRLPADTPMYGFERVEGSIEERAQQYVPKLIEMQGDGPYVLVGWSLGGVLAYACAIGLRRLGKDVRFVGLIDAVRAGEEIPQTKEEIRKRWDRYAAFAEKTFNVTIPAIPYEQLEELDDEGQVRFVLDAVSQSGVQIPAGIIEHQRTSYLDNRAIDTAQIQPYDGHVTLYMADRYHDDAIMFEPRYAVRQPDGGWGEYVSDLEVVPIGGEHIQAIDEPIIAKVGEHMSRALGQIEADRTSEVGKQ
- Measurement Notes: Mycobacterium tuberculosis Polyketide synthase 13 Thioesterase (PKS13)
- Assay type: functional
- Set-up: scale not given: in the data most compounds retested in dose-response had high values
- Measurement Conditions: 30 µM
The campaign covered roughly 67,000 compounds. About 300 (0.45%) showed an effect of 50% or more. What follows is part of a selection rich in strong results, with near analogues and random picks from the rest.
Listed here are molecules together with their documented Percent Effect.
Give just the number in %; leave the unit off.

Example cases with answers are listed next.
| Molecule | Percent Effect, % |
| --- | --- |
| CN(C)C(=O)c1cc2c(nc1NCC1CC1)CCNCC2 | -20.1 |
| Cc1ccc([C@]2(O)CC[C@H]3CN(Cc4cccc(Cl)c4Cl)C[C@H]32)nc1 | -77.5 |
| CCOC(=O)[C@@H]1[C@@H](c2ccccc2)CN2CCN(C(C)=O)C[C@H]12 | 0.569 |

# Percent Effect of "CC(C)N1Cc2cccc(NCC(=O)N(C)C3CCCCC3)c2C1" = 81.9

# Percent Effect of "CCC(=O)N1CCN(Cc2cnc(C)nc2)[C@H]2CS(=O)(=O)C[C@H]21" = -6.93

# Percent Effect of "Cc1cccc(CN2C[C@@H]3COC[C@]3(CNC(=O)N3CCCC3)C2)n1" = -7.01

# Percent Effect of O=C1CCCC2=C1C(c1cc(Cl)ccc1F)Nc1nonc1N2 (configuration not stated) = -14.9

# Percent Effect of "Cc1ccc(N2CC[C@H]3O[C@H](C(=O)NCc4ccco4)CC[C@H]32)nn1" = -3.57

# Percent Effect of "CNC(=O)c1cc2c(nc1NCC1CC1)CCN(c1ncccn1)CC2" = 9.04

# Percent Effect of "CCn1c(SCC(=O)N2CCOCC2)nc2cc(C)[nH]c2c1=O" = 11.1

# Percent Effect of CC(C)C(C)N1Cc2cccc(NCC(=O)N(C)C)c2C1 (configuration not stated) = -6.55

# Percent Effect of "Cc1cc(CN2CC[C@@H]3O[C@@H](c4nnc(C)o4)C[C@H]3C2)no1" = -7.21

# Percent Effect of "CCN1CCC(NC(=O)Cc2csc(C(C)(C)C)n2)CC1" = -28.7
